Data origin: ChEMBL document CHEMBL5252513

Molecular target: Histone acetyltransferase KAT2B (Homo sapiens)
Sequence (Q92831 whole entry): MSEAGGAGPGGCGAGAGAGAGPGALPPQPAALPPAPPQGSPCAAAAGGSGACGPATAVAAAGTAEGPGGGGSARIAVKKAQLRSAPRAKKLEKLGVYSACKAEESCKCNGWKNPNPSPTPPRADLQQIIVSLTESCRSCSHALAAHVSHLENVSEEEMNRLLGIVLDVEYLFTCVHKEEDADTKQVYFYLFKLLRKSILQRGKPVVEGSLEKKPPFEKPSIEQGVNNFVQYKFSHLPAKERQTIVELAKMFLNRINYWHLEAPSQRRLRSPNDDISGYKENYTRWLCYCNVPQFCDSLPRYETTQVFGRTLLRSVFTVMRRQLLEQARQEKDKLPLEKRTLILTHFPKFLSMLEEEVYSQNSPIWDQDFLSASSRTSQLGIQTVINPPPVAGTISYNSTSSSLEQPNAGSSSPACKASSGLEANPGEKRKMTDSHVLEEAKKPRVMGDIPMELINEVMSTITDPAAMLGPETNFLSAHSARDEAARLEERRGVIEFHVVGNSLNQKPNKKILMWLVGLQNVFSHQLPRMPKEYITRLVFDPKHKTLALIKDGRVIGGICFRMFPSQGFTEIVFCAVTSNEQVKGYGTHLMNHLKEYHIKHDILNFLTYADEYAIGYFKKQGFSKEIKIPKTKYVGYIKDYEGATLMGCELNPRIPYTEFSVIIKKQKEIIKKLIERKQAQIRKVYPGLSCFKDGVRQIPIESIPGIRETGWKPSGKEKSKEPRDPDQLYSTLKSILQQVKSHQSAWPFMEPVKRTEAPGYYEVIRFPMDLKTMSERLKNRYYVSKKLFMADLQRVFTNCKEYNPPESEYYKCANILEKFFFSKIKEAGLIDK
Experiment: Displacement of biotinylated JQ1 from PCAF bromodomain (unknown origin) incubated for 20 mins by AlphaLISA assay
pIC50: −log10 of the molar value.
assay.readout: pIC50

Ask: Identify measured pIC50 corresponding to Cc1noc2c1-c1ccccc1C(c1ccc(Cl)cc1)=N[C@H]2CC(N)=O [PELABRESIB]
Result: < 4.70

====

Assay: Oral bioavailability in rat at 5 mg/kg
Assay type: ADME, organism-based
Conditions: in vivo
The following compounds are listed with their measured bioavailability values.
Answer format: number, then unit.

See these solved cases before continuing.
>  <compound>
Cc1noc2c1-c1ccccc1C(c1ccc(Cl)cc1)=N[C@H]2CC(N)=O [PELABRESIB]

>  <assay.readout>
bioavailability

>  <result>
76%

$$$$
>  <compound>
Cc1noc2c1-c1ccccc1C(c1ccc(C#N)cc1)=N[C@H]2CC(N)=O

>  <assay.readout>
bioavailability

>  <result>
56%

$$$$

# context switch: different compound, same bioavailability
Ask: Give bioavailability for Cc1cccc2c1C(c1ccc(Cl)cc1)=N[C@@H](CC(N)=O)c1onc(C)c1-2
Result: 92%

====

Test: Tmax in rat at 10 mg/kg,po
Assay type: ADME, organism-based
Settings: in vivo
Entries and their measured Tmax follow.

>  <smiles.data>
COc1ccc2c(c1)C(c1ccc(Cl)cc1)=N[C@@H](CC(N)=O)c1onc(C)c1-2

>  <Tmax>
49.8 min

$$$$

Next compound, please.
Ask: Consider the compound COCCNC(=O)C[C@@H]1N=C(c2ccc(Cl)cc2)c2ccccc2-c2c(C)noc21 . State its measured Tmax.
Result: 40.2 min

====

Experiment: Cmax in rat at 10 mg/kg,po
Assay type: ADME, organism-based
Design: dose 10 mg/kg, route po
Conditions: in vivo
Entries and their Cmax values follow.
State just the number; it will be interpreted in nM.

>  <smiles.data>
COCCNC(=O)C[C@@H]1N=C(c2ccc(Cl)cc2)c2ccccc2-c2c(C)noc21

>  <assay.readout>
Cmax

>  <result.number>
380

$$$$

Continue with the next compound.
Ask: For the compound COc1ccc2c(c1)C(c1ccc(Cl)cc1)=N[C@@H](CC(N)=O)c1onc(C)c1-2 , report Cmax.
Result: 1600

====

Experiment: Oral bioavailability in rat at 10 mg/kg
Assay type: ADME, organism-based
Conditions: in vivo
assay.readout: bioavailability (%)
The reply should contain only the number, in %.

Ask: Report bioavailability for COc1ccc2c(c1)C(c1ccc(Cl)cc1)=N[C@@H](CC(N)=O)c1onc(C)c1-2
Result: 60

Ask: Using known records, supply bioavailability for COCCNC(=O)C[C@@H]1N=C(c2ccc(Cl)cc2)c2ccccc2-c2c(C)noc21
Result: 11

====

Test: Intrinsic clearance in mouse liver microsomes
Assay type: ADME, Microsome
Details: read-out: CLH
assay.readout: predicted hepatic clearance (mL/min/kg)
I only need the number, in mL/min/kg, no unit after it.

Before answering, review these 2 worked examples.
>  <compound>
COc1ccc2c(c1)C(c1ccc(Cl)cc1)=N[C@@H](CC(N)=O)c1onc(C)c1-2

>  <predicted hepatic clearance, mL/min/kg>
26

$$$$
>  <compound>
Cc1ccc(C2=N[C@@H](CC(N)=O)c3onc(C)c3-c3ccccc32)cc1

>  <predicted hepatic clearance, mL/min/kg>
78

$$$$

Ask: Please report predicted hepatic clearance for the following compound: Cc1cccc2c1C(c1ccc(Cl)cc1)=N[C@@H](CC(N)=O)c1onc(C)c1-2
Result: 47

Ask: Look up and report measured predicted hepatic clearance for this entry: Cc1noc2c1-c1ccccc1C(c1ccc(C#N)cc1)=N[C@H]2CC(N)=O
Result: 29

Ask: Dear colleague, please send me the reported predicted hepatic clearance for Cc1noc2c1-c1ccccc1C(c1ccc(Cl)cc1)=NC2C(N)=O (configuration not stated) when you can.
Result: 32

Ask: Assign predicted hepatic clearance to the following record: Cc1noc2c1-c1ccccc1C(c1ccc(Cl)cc1)=N[C@H]2CC(N)C(F)(F)F (some centres not stated)
Result: 41

Ask: Give the reported predicted hepatic clearance for this compound. Cc1noc2c1-c1ccccc1C(c1ccc(Cl)cc1)=NC2
Result: 52

Ask: Give reported predicted hepatic clearance value for Cc1noc2c1-c1ccccc1C(c1ccc(Cl)cc1)=N[C@H]2CC(N)=O
Result: 30

Ask: Return value of predicted hepatic clearance for input Cc1noc2c1-c1ccccc1C(c1ccccc1)=N[C@H]2CC(N)=O , no commentary.
Result: 10

Ask: Please look at this compound and report its predicted hepatic clearance: COCCNC(=O)C[C@@H]1N=C(c2ccc(Cl)cc2)c2ccccc2-c2c(C)noc21
Result: 82

Ask: Supply reported predicted hepatic clearance belonging to this compound: Cc1noc2c1-c1ccc(-c3cn(C)cn3)cc1C(c1ccc(Cl)cc1)=N[C@H]2CC(N)=O
Result: 28

Ask: Answer with the recorded predicted hepatic clearance of CCNC(=O)C[C@@H]1N=C(c2ccc(Cl)cc2)c2ccccc2-c2c(C)noc21 only.
Result: 61
